Just for reference, patent US20070197512A1 is where these values come from.

Below, each of the compounds is paired with its reported IC50 value.
# STUDY TARGET: human URAT1 (Homo sapiens, UniProt Q96S37)
# Construct: Human URAT1 full length cDNA was subcloned to expression vector pcDNA3.1
# ASSAY DETAILS: Uric acid transport inhibitory test using human URAT1-expressing cells
# CONDITION PARAMETERS: human URAT1-expressing HEK293 cells, 14C-uric acid 50 μM, uptake 5 min, room temperature; read-out: hURAT1 IC50

# COMPOUND, IC50
measured = [
    ("Cc1cc(Cl)cc2c1O[C@H](C(C)C)C(=O)N2CCC(=O)O", "< 300 nM"),
    ("CC(C)C1Oc2c(cccc2C(C)(C)C)N(CCC(=O)O)C1=O (centres unmarked)", "≥ 3000 nM"),
]

Query: IC50; subject: Cc1cc(Cl)c2c(c1)N(CCC(=O)O)C(=O)C(C(C)C)O2 (centres unmarked)
< 300 nM

Query: IC50; subject: O=C(O)CCN1C(=O)COc2ccccc21
≥ 3000 nM

Query: IC50; subject: CCc1cccc2c1OC(C(C)C)C(=O)N2CCC(=O)O (centres unmarked)
300 to 3000 nM

====

Below, each of the compounds is paired with its reported IC50 value.
# STUDY TARGET: human URAT1 (Homo sapiens, UniProt Q96S37)
# Construct: Human URAT1 full length cDNA was subcloned to expression vector pcDNA3.1
# ASSAY DETAILS: Uric acid transport inhibitory test using human URAT1-expressing cells
# CONDITION PARAMETERS: human URAT1-expressing HEK293 cells, 14C-uric acid 50 μM, uptake 5 min, room temperature; read-out: hURAT1 IC50

Completed entries (count: 3):
# COMPOUND, IC50
data = [
    ("CC(C)C1Oc2c(Cl)cccc2N(CCC(=O)O)C1=O (stereo not drawn)", "< 0.3 µM"),
    ("Cc1cc(Cl)cc2c1OC(C(C)C)CN2C(=O)/C=C/C(=O)O (stereo not drawn)", "0.3 to 3 µM"),
    ("CC(C)c1cccc2c1OC(C(C)C)CN2C(=O)/C=C\\C(=O)O (stereo not drawn)", "0.3 to 3 µM"),
]

Query: IC50; subject: CC(C)C1CN(C(=O)/C=C/C(=O)O)c2cccc(C3CCCCC3)c2O1 (stereo not drawn)
≥ 3 µM

Query: IC50; subject: O=C(O)CN1C(=S)CSc2ccccc21
≥ 3 µM

Query: IC50; subject: CC(C)c1cccc2c1OCC(=O)N2CC(=O)O
≥ 3 µM

====

# STUDY TARGET: human URAT1 (Homo sapiens)
# Construct: Human URAT1 full length cDNA was subcloned to expression vector pcDNA3.1
# Sequence (Q96S37 1-553): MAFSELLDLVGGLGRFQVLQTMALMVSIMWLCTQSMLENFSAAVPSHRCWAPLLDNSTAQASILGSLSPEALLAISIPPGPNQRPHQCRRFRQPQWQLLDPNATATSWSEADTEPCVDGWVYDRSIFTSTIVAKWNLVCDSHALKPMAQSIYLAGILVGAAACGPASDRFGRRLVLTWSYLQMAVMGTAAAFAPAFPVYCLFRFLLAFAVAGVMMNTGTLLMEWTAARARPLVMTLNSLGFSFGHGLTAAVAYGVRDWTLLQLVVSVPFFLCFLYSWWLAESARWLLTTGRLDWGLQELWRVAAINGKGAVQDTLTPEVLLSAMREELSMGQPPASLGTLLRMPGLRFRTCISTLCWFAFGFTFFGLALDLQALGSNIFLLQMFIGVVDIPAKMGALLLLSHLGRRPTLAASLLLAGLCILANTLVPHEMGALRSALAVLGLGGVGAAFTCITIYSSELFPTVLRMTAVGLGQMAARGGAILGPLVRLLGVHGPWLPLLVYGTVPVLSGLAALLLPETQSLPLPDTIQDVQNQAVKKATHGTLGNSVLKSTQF
# ASSAY DETAILS: Uric acid transport inhibitory test using human URAT1-expressing cells
# CONDITION PARAMETERS: human URAT1-expressing HEK293 cells, 14C-uric acid 50 μM, uptake 5 min, room temperature; read-out: hURAT1 IC50
pIC50: −log10 of the molar value.
RESULT TYPE: pIC50

Completed entries (count: 6):
# COMPOUND, STUDY TARGET, pIC50
measured = [
    ("Cc1ccc2c(c1)N(CCC(=O)O)C(=O)C(C(C)C)O2 (stereo not drawn)", "human URAT1 (Homo sapiens)", "5.52 to 6.52"),
    ("CC(C)c1cccc2c1OC(C(C)C)C(=O)N2CCC(=O)O (stereo not drawn)", "human URAT1 (Homo sapiens)", "5.52 to 6.52"),
    ("Cc1cc(C)c2c(c1)N(CCC(=O)O)C(=O)C(C)O2 (stereo not drawn)", "human URAT1 (Homo sapiens)", "≤ 5.52"),
    ("CC(C)C1Oc2c(ccc3ccccc23)N(CCC(=O)O)C1=O (stereo not drawn)", "human URAT1 (Homo sapiens)", "≤ 5.52"),
    ("O=C(O)/C=C/C(=O)N1CC(c2ccccc2)Oc2ccc(Cl)cc21 (stereo not drawn)", "human URAT1 (Homo sapiens)", "≤ 5.52"),
    ("Cc1cc(C)c2c(c1)N(CCC(=O)O)C(=O)CO2", "human URAT1 (Homo sapiens)", "≤ 5.52"),
]

Query: pIC50; subject: CC(C)C1Oc2cc(Cl)ccc2N(CCC(=O)O)C1=O (stereo not drawn)
5.52 to 6.52

Query: pIC50; subject: CCc1cccc2c1OC(C(C)C)CN2C(=O)/C=C/C(=O)O (stereo not drawn)
5.52 to 6.52

Query: pIC50; subject: CC(C)c1cccc2c1OC(C(C)C)CN2C(=O)CC(=O)O (stereo not drawn)
≤ 5.52

Query: pIC50; subject: Cc1c(Cl)cc2c(c1Cl)OC(C(C)C)C(=O)N2CCC(=O)O (stereo not drawn)
> 6.52

Query: pIC50; subject: Cc1cc(Cl)cc2c1O[C@@H](C(C)C)C(=O)N2CCC(=O)O
5.52 to 6.52

Query: pIC50; subject: CC(C)c1cccc2c1OC(C(C)C)C(=S)N2CCCC(=O)O (stereo not drawn)
≤ 5.52

Query: pIC50; subject: CC(C)C1Oc2c(cc(C(F)(F)F)cc2C(F)(F)F)N(CCC(=O)O)C1=O (stereo not drawn)
5.52 to 6.52

Query: pIC50; subject: O=C(O)CCN1C(=O)C(c2ccccc2)Oc2c(Br)cccc21 (stereo not drawn)
5.52 to 6.52

Query: pIC50; subject: O=C(O)CN1C(=S)COc2ccccc21
≤ 5.52
